conditions: 293.15 K; 101.33 kPa; Liquid; Vibrating tube method
Measured Parameter: mass density (kg/m3)

{"Compound": "CCCCOC(=O)C(C)O (centres undefined) [butyl 2-hydroxypropanoate]", "mass density (kg/m3)": 982}
{"Compound": "CN1CCCN(C)C1=O [1,3-dimethyl-3,4,5,6-tetrahydro-2(1H)-pyrimidinone]", "mass density (kg/m3)": 1065}
{"Compound": "CN1CCN(C)C1=O", "mass density (kg/m3)": 1058}
{"Compound": "O=C1CCCO1", "mass density (kg/m3)": 1129}
